# System: bovine retinal capillary endothelial cells
# procedure text: Activation of bovine retinal capillary endothelial cells by phorbol esters (PA activity, cell number)
# Format: cell-based
# condition parameters: Bos taurus, Endothelial cell; dose-response curves for phorbol esters
readout type: IC50 (nM)
Record the value in nM, omitting the unit from your answer.

Task: Query: IC50; subject: CCCCCCCCCCCCCC(=O)OC1C(C)C2(O)C(C=C(CO)CC3(O)C(=O)C(C)=CC32)C2C(C)(C)C12OC(C)=O (stereo not shown)
Result: 5

====

# Test system: bovine retinal capillary endothelial cells
# procedure text: Activation of bovine retinal capillary endothelial cells by phorbol esters (PA activity, cell number)
# Type: cell-based
# condition parameters: phorbol esters known to activate PKC vs. 4-α analogues
readout type: increase in endothelial cell activation (in words)

CCCCCCCCCCCCCC(=O)OC1C(C)C2(O)C(C=C(CO)CC3(O)C(=O)C(C)=CC32)C2C(C)(C)C12OC(C)=O (stereo not drawn) [4-α PMA]
not
CCCC(=O)OC1C(C)C2(O)C(C=C(CO)CC3(O)C(=O)C(C)=CC32)C2C(C)(C)C12OC(=O)CCC (stereo not drawn) [4-α PDBu]
not
